- TARGET ENTITY: plasmin (Homo sapiens)
- Sequence (P00747 581-810 limits assumed, species assumed): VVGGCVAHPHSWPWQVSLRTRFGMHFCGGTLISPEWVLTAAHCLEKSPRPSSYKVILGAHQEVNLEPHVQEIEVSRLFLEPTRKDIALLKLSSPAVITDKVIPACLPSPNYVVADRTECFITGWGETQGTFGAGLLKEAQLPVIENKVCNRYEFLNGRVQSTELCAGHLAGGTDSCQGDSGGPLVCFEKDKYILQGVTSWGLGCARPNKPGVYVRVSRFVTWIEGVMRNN
- Sequence (P00747 97-580 partner limits assumed, species assumed): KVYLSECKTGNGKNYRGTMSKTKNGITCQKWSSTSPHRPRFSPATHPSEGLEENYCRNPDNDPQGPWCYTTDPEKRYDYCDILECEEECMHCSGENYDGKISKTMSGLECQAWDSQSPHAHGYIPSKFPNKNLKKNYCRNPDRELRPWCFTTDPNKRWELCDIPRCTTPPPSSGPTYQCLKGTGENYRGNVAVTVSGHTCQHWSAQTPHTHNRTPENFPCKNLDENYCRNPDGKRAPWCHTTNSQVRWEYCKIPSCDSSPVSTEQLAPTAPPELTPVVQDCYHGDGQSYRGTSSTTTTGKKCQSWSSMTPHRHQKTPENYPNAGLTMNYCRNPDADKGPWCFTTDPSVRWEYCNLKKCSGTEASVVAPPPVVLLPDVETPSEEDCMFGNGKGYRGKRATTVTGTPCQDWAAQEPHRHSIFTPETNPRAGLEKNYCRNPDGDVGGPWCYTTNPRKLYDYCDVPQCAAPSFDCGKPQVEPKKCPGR
- EXPERIMENTAL DETAILS: in vitro plasmin inhibition, substrate Boc-Val-Leu-Lys-7-amido-4-methylcoumalin
- Assay type: biochemical
- TEST PARAMETERS: 0.2 M Tris-HCl, 0.02 M CaCl2, 0.005% Triton X-100, pH 8.0, 25°C, 20 minutes
PARAMETER: IC50
Put down the number, then write its unit next to it.

COMPOUND: CS(=O)(=O)O.N=C(N)Nc1ccc(C(=O)Oc2cc(Cl)cc(OS(=O)(=O)C=Cc3ccccc3)c2)cc1
IC50: 0.012 µM

COMPOUND: N=C(N)Nc1ccc(C(=O)Oc2cc(Cl)cc(Cl)c2)cc1 [Comp. Ex. 2, reference compound]
IC50: 0.09 µM

COMPOUND: CON=C(C)c1cccc(OC(=O)c2ccc(NC(=N)N)cc2)c1
IC50: 0.063 µM

I would be grateful if you could share the reported IC50 for `CC1(C(=O)Oc2cc(Cl)cc(OC(=O)c3ccc(NC(=N)N)cc3)c2)CC1` . 0.015 µM

I would be grateful if you could share the reported IC50 for `N=C(N)Nc1ccc(C(=O)Oc2ccc(OC(F)(F)F)cc2)cc1` . 0.018 µM

I would be grateful if you could share the reported IC50 for `N=C(N)Nc1ccc(C(=O)Oc2cc(Cl)cc(OC(=O)C3CCCCC3)c2)cc1` . 0.01 µM

I would be grateful if you could share the reported IC50 for `N=C(N)Nc1ccc(C(=O)Oc2cccc(OC(F)(F)F)c2)cc1` . 0.043 µM
